src = the NIST ThermoML archive (doi:10.1016/j.jct.2012.03.015)

Reported values of activity coefficient for individual entries
assay: activity coefficient (dimensionless); of the first substance listed, at infinite dilution; xn = mol fraction of the nth substance listed; details: 328.15 K; 101 kPa; Liquid; Chromatography; x1 = 0
// return just the number, without any unit appended

Example entries begin here.
- compound: "CC1CCCCC1 [methylcyclohexane] + COCC[N+]1(C)CCCC1.O=S(=O)([N-]S(=O)(=O)C(F)(F)F)C(F)(F)F"
  activity coefficient: 14.4
- compound: "C=CCCC [1-pentene] + COCC[N+]1(C)CCCC1.O=S(=O)([N-]S(=O)(=O)C(F)(F)F)C(F)(F)F"
  activity coefficient: 6.5
- compound: "CO [methanol] + COCC[N+]1(C)CCCC1.O=S(=O)([N-]S(=O)(=O)C(F)(F)F)C(F)(F)F"
  activity coefficient: 1.27

## Task For C#CCCCCC [1-heptyne] + COCC[N+]1(C)CCCC1.O=S(=O)([N-]S(=O)(=O)C(F)(F)F)C(F)(F)F , what is its reported activity coefficient?
## Result 4.71
